Values were extracted from the supplement of paper PMC9428881.

assay: background-corrected fluorescence of 3'-dye-labeled ssDNA relative to brightest sequence (3'-GCGCG) (fraction); higher = brighter dye fluorescence (less quenching); conditions: dye: Cy3 (3' terminal)
# maps each entry to its background-corrected fluorescence
parameter: background-corrected fluorescence

INSERT INTO results (construct_sequence, experimental_value) VALUES
  ('TTTTTTCATGAGCATCATGCTTTTTTTTTTTTTTTGCTGA [AGTCG]', 0.592),
  ('TTTTTTGCTGAGCAGCATGCTTTTTTTTTTTTTTTACTTA [ATTCA]', 0.493),
  ('TTTTTTGATGCGCATCAGCATTTTTTTTTTTTTTTCATGT [TGTAC]', 0.615),
  ('TTTTTTGATCATGCTGATGCTTTTTTTTTTTTTTTCGACA [ACAGC]', 0.512);
